EXPERIMENT_DESCRIPTION: Cytotoxicity against human MRC5 SV2 cells measured after 72 hrs by resazurin based fluorescence assay
Format: toxicity, cell-based
OBSERVED_PROPERTY: CC50 at 72 h (µM)
The reply should contain only the number, in µM.

### Prompt Name the recorded CC50 at 72 h of the item `COc1c(O)cc2oc3cc(O)c(CC=C(C)C)c(O)c3c(=O)c2c1CC=C(C)C` in your answer.
### Response 7.5

----------
MEASURED_TARGET: CYP2C19 (Homo sapiens)
Sequence (P33261 whole entry): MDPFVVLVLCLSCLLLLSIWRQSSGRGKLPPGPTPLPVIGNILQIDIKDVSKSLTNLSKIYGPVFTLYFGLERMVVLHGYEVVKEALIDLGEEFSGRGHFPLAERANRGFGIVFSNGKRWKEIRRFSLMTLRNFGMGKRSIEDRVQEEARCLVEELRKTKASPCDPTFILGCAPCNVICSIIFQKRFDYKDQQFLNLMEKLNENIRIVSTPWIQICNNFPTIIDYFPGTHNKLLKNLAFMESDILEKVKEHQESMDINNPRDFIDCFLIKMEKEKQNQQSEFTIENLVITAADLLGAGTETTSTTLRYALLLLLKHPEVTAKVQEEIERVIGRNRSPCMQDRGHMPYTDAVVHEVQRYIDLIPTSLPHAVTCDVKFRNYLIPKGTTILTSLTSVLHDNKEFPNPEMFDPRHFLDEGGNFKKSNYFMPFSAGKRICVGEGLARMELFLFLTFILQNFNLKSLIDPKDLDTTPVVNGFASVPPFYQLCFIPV
EXPERIMENT_DESCRIPTION: Inhibition of CYP2C19 in human liver microsomes at 10 uM using omeprazole as substrate preincubated for 5 min followed by NADPH addition measured after 10 mins by LC-MS/MS method relative to control
Assay type: ADME
MEASUREMENT_CONTEXT: probe omeprazole
Recorded inhibition at 10 min, 10 µM by entry
The reply should contain only the number, in %.

Sample records with inhibition at 10 min, 10 µM:
CCCN(CCC)CCCCOc1cc2oc3cc(OCCCCN(CCC)CCC)c(OC)c(CC=C(C)C)c3c(=O)c2c(O)c1CC=C(C)C
19.2
CCN(CC)CCCCOc1cc2oc3cc(OCCCCN(CC)CC)c(OC)c(CC=C(C)C)c3c(=O)c2c(OCCCCN(CC)CC)c1CC=C(C)C
10
CCN(CC)CCCCOc1cc2oc3cc(OCCCCN(CC)CC)c(OC)c(CC=C(C)C)c3c(=O)c2c(O)c1CC=C(C)C
3
CCN(CC)CCCCCCCOc1cc2oc3cc(OCCCCCCCN(CC)CC)c(OC)c(CC=C(C)C)c3c(=O)c2c(O)c1CC=C(C)C
16
CCN(CC)CCOc1cc2oc3cc(OCCN(CC)CC)c(OC)c(CC=C(C)C)c3c(=O)c2c(O)c1CC=C(C)C
16
COC(=O)C(CCCNC(=N)N)NC(=O)COc1cc2oc3cc(OCC(=O)NC(CCCNC(=N)N)C(=O)OC)c(OC)c(CC=C(C)C)c3c(=O)c2c(O)c1CC=C(C)C (stereo not drawn)
1
COc1c(OCC(=O)NC(CCCNC(=N)N)C(N)=O)cc2oc3cc(OCC(=O)NC(CCCNC(=N)N)C(N)=O)c(CC=C(C)C)c(O)c3c(=O)c2c1CC=C(C)C (stereo not drawn)
3

### Prompt Name the recorded inhibition at 10 min, 10 µM of the item `COc1c(OCCCCN2CCOCC2)cc2oc3cc(OCCCCN4CCOCC4)c(CC=C(C)C)c(O)c3c(=O)c2c1CC=C(C)C` in your answer.
### Response 17
